molecular target: Protein max (Homo sapiens); experiment: Inhibition of His6-tagged Max (151 amino acid residues) (unknown origin) assessed as disruption of Max-Max dimerization by electrophoretic mobility shift assay
Sequence (P61244 whole entry): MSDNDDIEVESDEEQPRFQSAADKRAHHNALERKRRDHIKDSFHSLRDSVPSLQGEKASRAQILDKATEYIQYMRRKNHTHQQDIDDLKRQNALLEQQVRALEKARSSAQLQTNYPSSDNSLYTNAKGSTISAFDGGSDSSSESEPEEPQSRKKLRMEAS
Measure name: IC50

Endpoint output: IC50 of O=C(O)c1ccc(Nc2ccc([N+](=O)[O-])c3nonc23)cc1 . Value?
> 100 µM

---

biological target: Myc proto-oncogene protein (Homo sapiens, UniProt P01106); test: Inhibition of recombinant His6-tagged c-Myc bHLH-ZIP domain (353 to 437 amino acid residues) (unknown origin) assessed as disruption of Myc-Max dimerization at 100 uM by electrophoretic mobility shift assay relative to control
Sequence (P01106 whole entry, the tested form may be a part): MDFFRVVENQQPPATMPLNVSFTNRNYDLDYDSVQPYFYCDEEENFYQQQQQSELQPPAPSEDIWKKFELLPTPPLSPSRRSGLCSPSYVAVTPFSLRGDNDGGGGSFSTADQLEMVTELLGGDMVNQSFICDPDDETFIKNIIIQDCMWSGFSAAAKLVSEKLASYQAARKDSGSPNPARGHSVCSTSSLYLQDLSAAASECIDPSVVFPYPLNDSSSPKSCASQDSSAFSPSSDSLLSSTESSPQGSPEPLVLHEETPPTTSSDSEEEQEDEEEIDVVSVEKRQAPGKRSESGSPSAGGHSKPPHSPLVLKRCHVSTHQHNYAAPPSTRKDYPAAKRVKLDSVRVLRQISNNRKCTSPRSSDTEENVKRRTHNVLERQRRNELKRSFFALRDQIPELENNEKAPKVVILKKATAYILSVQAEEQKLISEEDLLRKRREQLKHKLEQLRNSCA
Mark n for inhibition values under 20%, and y for everything at or above.

Kindly determine if inhibition recorded for O=[N+]([O-])c1ccc(NCc2ccccc2)c2nonc12 is above or exactly 20%.
n

Entry Cc1ccc(Nc2ccc([N+](=O)[O-])c3nonc23)cc1 please
n

// same read-out, input: O=[N+]([O-])c1ccc(Nc2ccccc2Br)c2nonc12
y

Same lookup for Cc1ccccc1Nc1ccc([N+](=O)[O-])c2nonc12 , please.
n

Thanks! And O=[N+]([O-])c1ccc(Oc2ccccc2-c2ccccc2)c2nonc12 ?
y

Moving on to the next compound: O=C(Nc1ccc(Nc2ccccc2-c2ccccc2)c2nonc12)C(F)(F)F
y

Same lookup for COc1ccccc1Nc1ccc([N+](=O)[O-])c2nonc12 , please.
n

Now try O=[N+]([O-])c1ccc(Nc2ccccc2)c2nonc12 .
n

How about O=C(O)c1ccccc1Nc1ccc([N+](=O)[O-])c2nonc12 ?
n

// query: O=C(O)COCC(=O)Nc1ccc(Nc2ccccc2-c2ccccc2)c2nonc12
y

---

target: Myc proto-oncogene protein (Homo sapiens); experiment: Inhibition of recombinant His6-tagged c-Myc bHLH-ZIP domain (353 to 437 amino acid residues) (unknown origin) assessed as disruption of Myc-Max dimerization at 100 uM by electrophoretic mobility shift assay relative to control
# label = true (1) if inhibition >= 10% else false (0)

Say whether O=C(O)c1cccc(Nc2ccc([N+](=O)[O-])c3nonc23)c1 shows inhibition of 10% or more.
false (0)

Again, but for CC(=O)Nc1ccc(Nc2ccccc2-c2ccccc2)c2nonc12
false (0)

Next: O=[N+]([O-])c1ccc(Nc2ccccc2O)c2nonc12
true (1)

Subsequent entry: COC(=O)Nc1ccc(Nc2ccccc2-c2ccccc2)c2nonc12
false (0)

Can you check O=[N+]([O-])c1ccc(Nc2ccccc2-c2ccccc2)cc1 next?
false (0)

Now give it for O=[N+]([O-])c1ccc(Nc2ccccc2-c2ccccc2)c2nonc12 too.
true (1)

What would you report for O=[N+]([O-])c1ccc(NC2CCCCC2)c2nonc12 ?
true (1)

Then what about the compound O=C(O)CCC(=O)Nc1ccc(Nc2ccccc2-c2ccccc2)c2nonc12 ?
true (1)

Also O=C(O)c1ccc(Nc2ccc([N+](=O)[O-])c3nonc23)cc1 ?
true (1)

Likewise for O=[N+]([O-])c1ccc(Nc2ccc(-c3ccccc3)cc2)c2nonc12 ?
true (1)
